Kindly state % Inhibition for each of the entries shown.
Tested on: acyl-coenzyme A: cholesterol acyltransferase
Assay: Inhibition of ACAT / intracellular cholesterol esterification in vitro (procedure of Ross et al.)
Assay type: cell-based
Conditions: 25 μM

Here's what some known entries look like.
COMPOUND: CCCCCCCN(Cc1ccc(OCCC(C)C)cc1)C(Nc1cc(OC)c(OC)c(OC)c1)=C1C(=O)OC(C)(C)OC1=O [Compound 23]
TEST_RESULT: 85%

COMPOUND: COc1ccc(NC(=C2C(=O)OC(C)(C)OC2=O)N(Cc2ccc(CCC(C)C)cc2)C(CC(C)C)CC(C)C)c(OC)c1 [Compound 72]
TEST_RESULT: 98%

COMPOUND: CCCCC(CC)N(Cc1ccc(CC(C)(C)C)cc1)C(Nc1ccc(N(C)C)cc1)=C1C(=O)OC(C)(C)OC1=O (stereo not drawn) [Compound 62]
TEST_RESULT: 99%

COMPOUND: COc1ccc(NC(=C2C(=O)OC(C)(C)OC2=O)N(Cc2ccc(CC(C)C)cc2)C(C)CCCC(C)(C)O)c(OC)c1 (stereo not drawn) [Compound 52]
TEST_RESULT: 89%

Hello, I would appreciate it if you could give % Inhibition for each entry below.
1. CCCCCC(C)N(Cc1ccc(CC(C)C)cc1)C(Nc1cc(C(C)(C)C)c(O)c(C(C)(C)C)c1)=C1C(=O)OC(C)(C)OC1=O (stereo not drawn) [Compound 13]
2. COc1ccc(NC(=C2C(=O)OC(C)(C)OC2=O)N(Cc2ccc(CC(C)(C)C)cc2)CC2(c3ccccc3)CCCC2)c(OC)c1 [Compound 10]
3. CCCCCC(C)N(Cc1ccc(C(C)(C)C)cc1)C(Nc1ccc(N(C)C)cc1)=C1C(=O)OC(C)(C)OC1=O (stereo not drawn) [Compound 21]
4. CCCCCC(C)N(Cc1ccc(CC(C)C)cc1)C(Nc1ccc(N(C)C)cc1C)=C1C(=O)OC(C)(C)OC1=O (stereo not drawn) [Compound 46]
5. CCCCCC(C)N(Cc1ccc(CC(C)(C)C)cc1)C(Nc1c(C)cc(N(C)C)cc1C)=C1C(=O)OC(C)(C)OC1=O (stereo not drawn) [Compound 33]

["99%", "97%", "98%", "98%", "98%"]

Hello, I would appreciate it if you could give % Inhibition for each entry below.
1. CCCCc1ccc(CN(C(Nc2ccc(N(C)C)cc2)=C2C(=O)OC(C)(C)OC2=O)C(C)CCCC(C)(C)O)cc1 (stereo not drawn) [Compound 45]
2. CC(C)Cc1ccc(CN(C(Nc2ccc(N(C)C)cc2)=C2C(=O)OC(C)(C)OC2=O)C(C)CN2CCOCC2)cc1 (stereo not drawn) [Compound 51]
3. CCCCCCCN(Cc1ccc(CCCCC)cc1)C(Nc1ccc(C(F)(F)F)cc1)=C1C(=O)OC(C)(C)OC1=O [Compound 17]
4. CCCCCC(C)N(Cc1ccc(CC(C)(C)C)cc1)C(Nc1ccc(OC)cc1OC)=C1C(=O)OC(C)(C)OC1=O (stereo not drawn) [Compound 7]
5. CCCCC(CC)N(Cc1ccc(CC(C)(C)C)cc1)C(Nc1ccc(N(C)C)cc1C)=C1C(=O)OC(C)(C)OC1=O (stereo not drawn) [Compound 66]
6. CCCCc1ccc(CN(C(Nc2ccc(OC)cc2OC)=C2C(=O)OC(C)(C)OC2=O)C(C)CCCC(C)(C)O)cc1 (stereo not drawn) [Compound 44]
7. CCCCCC(C)N(Cc1ccc(CC(C)C)cc1)C(Nc1ccc(OC)cc1OC)=C1C(=O)OC(C)(C)OC1=O (stereo not drawn) [Compound 32]

90%
66%
72%
99%
98%
82%
98%

Hello, I would appreciate it if you could give % Inhibition for each entry below.
1. CCCCCC(C)N(Cc1ccc(CCC(C)C)cc1)C(Nc1ccc(N(C)C)cc1C)=C1C(=O)OC(C)(C)OC1=O (stereo not drawn) [Compound 61]
2. CCCCCCCN(Cc1ccc(C(C)(C)C)cc1)C(Nc1ccc(OCCCCC)cc1)=C1C(=O)OC(C)(C)OC1=O [Compound 24]

1: 98%; 2: 96%

Hello, I would appreciate it if you could give % Inhibition for each entry below.
1. CCCCCCN(Cc1ccc(CC(C)C)cc1)C(Nc1cc(C(C)(C)C)c(O)c(C(C)(C)C)c1)=C1C(=O)OC(C)(C)OC1=O [Compound 77]
2. CCCCCC(C)N(Cc1ccc(CC(C)(C)C)cc1)C(Nc1ccc(C)cc1C)=C1C(=O)OC(C)(C)OC1=O (stereo not drawn) [Compound 64]

95%
99%

Hello, I would appreciate it if you could give % Inhibition for each entry below.
1. CCCCCCCN(Cc1ccc(C(C)(C)C)cc1)C(Nc1c(C)cc(N(C)C)cc1C)=C1C(=O)OC(C)(C)OC1=O [Compound 16]
2. CCCCCCCC/C=C\CCCCCCCCN(Cc1ccc(C(C)(C)C)cc1)C(Nc1ccc(OC)cc1OC)=C1C(=O)OC(C)(C)OC1=O [Compound 70]
3. CC(C)CCCC(C)N(Cc1ccc(CC(C)C)cc1)C(Nc1ccc(N(C)C)cc1)=C1C(=O)OC(C)(C)OC1=O (stereo not drawn) [Compound 42]
4. CCCCCCCN(Cc1ccc(C(C)(C)C)cc1)C(Nc1ccc(N(C)C)cc1)=C1C(=O)OC(C)(C)OC1=O [Compound 5]
5. CCCCCCCN(Cc1ccc(OCCC(C)C)cc1)C(Nc1ccc(OC)cc1OC)=C1C(=O)OC(C)(C)OC1=O [Compound 6]
6. CCCCCCCN(Cc1ccc(CC(C)(C)C)cc1)C(Nc1ccc(OC)cc1OC)=C1C(=O)OC(C)(C)OC1=O [Compound 48]
7. CCCCC(CC)N(Cc1ccc(CC(C)(C)C)cc1)C(Nc1ccc(OC)cc1OC)=C1C(=O)OC(C)(C)OC1=O (stereo not drawn) [Compound 60]

1. 84%
2. 24%
3. 98%
4. 99%
5. 99%
6. 94%
7. 99%
